# ASSAY: Plasma pharmacokinetics of MGX and FMGX (noncompartmental analysis), phase 1 fixed-sequence DDI study with itraconazole or rifampin
# Assay type: in vivo, human
# CONDITION DETAILS: human, in vivo, iv, 500 mg, FMGX only 500 mg BID IV, D1; Cohort 1, n = 16; geometric mean (geometric %CV); read-out: MGX AUC(0-inf)
RECORDED METRIC: AUC(0-inf)
Could you write the number and then its unit?

Asked: What does the record list as AUC(0-inf) for Nc1ncccc1-c1cc(Cc2ccc(COc3ccccn3)cc2)no1 [MGX, manogepix] ?
Given back: 460 µg·h/mL

* * *

# ASSAY: Plasma pharmacokinetics of MGX and FMGX (noncompartmental analysis), phase 1 fixed-sequence DDI study with itraconazole or rifampin
# Assay type: in vivo, human
# CONDITION DETAILS: human, in vivo, iv, 1000 mg, FMGX only 1000 mg BID IV, D1; Cohort 2, n = 17; geometric mean (geometric %CV); read-out: MGX Cmax
RECORDED METRIC: Cmax
Kindly format the answer as number then unit.

Asked: Fill in the blank: the reported Cmax of Nc1ncccc1-c1cc(Cc2ccc(COc3ccccn3)cc2)no1 [MGX, manogepix] is ____.
Given back: 13900 ng/mL

* * *

# ASSAY: clinical
# Type: in vivo, human
# CONDITION DETAILS: human, in vivo, iv, 500 mg, MGX t1/2
RECORDED METRIC: half-life (h)
Give bare numbers, in h.

Asked: What value of half-life has been recorded for this entry: Nc1ncccc1-c1cc(Cc2ccc(COc3ccccn3)cc2)no1 [MGX, manogepix]
Given back: 77.3

* * *

# ASSAY: Plasma pharmacokinetics of MGX and FMGX (noncompartmental analysis), phase 1 fixed-sequence DDI study with itraconazole or rifampin
# Type: in vivo, human
# CONDITION DETAILS: human, in vivo, iv, 1000 mg, FMGX only 1,000 mg BID IV, D1; Cohort 2, n = 17; read-out: MGX AUC(0-t), least squares geometric mean
RECORDED METRIC: AUC(0-t) (µg·h/mL)
Give bare numbers, in µg·h/mL.

Asked: Look at this compound and give its reported AUC(0-t). Nc1ncccc1-c1cc(Cc2ccc(COc3ccccn3)cc2)no1 [MGX, manogepix]
Given back: 772

* * *

# ASSAY: Plasma pharmacokinetics of MGX and FMGX (noncompartmental analysis), phase 1 fixed-sequence DDI study with itraconazole or rifampin
# Assay type: in vivo, human
# CONDITION DETAILS: human, in vivo; FMGX only 500 mg BID IV, D1; Cohort 1, n = 16; median (range)
RECORDED METRIC: Tmax (h)
One number for each entry, in h.

Asked: I have this compound here, Nc1ncccc1-c1cc(Cc2ccc(COc3ccccn3)cc2)no1 [MGX, manogepix] , and I need its recorded Tmax.
Given back: 12
